Reference source for all entries: the OligoGym collection

Target: CLCN5
Assay: pooled miR-30 sensor sort-seq; sequence = guide strand
Details: shRNA
Items are presented alongside their recorded sensor-assay potency score (higher = more potent).
measurement.label: sensor-assay potency score (higher = more potent)

sequence.content: TCAAACCAGCTAACGAACCTGA
result.number: -0.258
--
sequence.content: TTTGTCTCTCTCTTCAAAGGTG
result.number: -0.196
--
sequence.content: TTAAGTCTGTCATCCAATGAGC
result.number: -1.29
--
sequence.content: TCTTATGAGCAAACTCTTCTTT
result.number: -0.0775
--
sequence.content: TGCTATAGCACCAACAGCCATG
result.number: -1.3
--
sequence.content: TATAGCACCAACAGCCATGCTA
result.number: -0.0804
--
sequence.content: TATATGCTTTAACACATCCTTT
result.number: -1.04

###

Biological target: PPP3R1
Test: pooled miR-30 sensor sort-seq; sequence = guide strand
Details: shRNA
Items are presented alongside their recorded sensor-assay potency score (higher = more potent).
measurement.label: sensor-assay potency score (higher = more potent)

sequence.content: TTTTTGTGGATATCTAGGCCAC
system: PPP3R1
result.number: -0.626
//
sequence.content: TTACTCGCTGTACTAAAGGATT
system: PPP3R1
result.number: -1.35
//
sequence.content: TTTTGTCTACAATTTGCTGTAA
system: PPP3R1
result.number: -0.67
//
sequence.content: TTTGCTGTAACTGTGTATCTTT
system: PPP3R1
result.number: 0.559
//
sequence.content: TAAAATCACAACTAGCACTTAA
system: PPP3R1
result.number: -0.328
//
sequence.content: TAGCCTTTTAATTTCATCCGCA
system: PPP3R1
result.number: 0.489
//
sequence.content: TTCAATAACACTTAGTTGGCTT
system: PPP3R1
result.number: 0.15
//
sequence.content: AATATAGCCATCTTTATCCATG
system: PPP3R1
result.number: -1.54

###

Biological target: CSE1L
Experiment: pooled miR-30 sensor sort-seq; sequence = guide strand
Details: shRNA
Items are presented alongside their recorded sensor-assay potency score (higher = more potent).
measurement.label: sensor-assay potency score (higher = more potent)

sequence.content: TTCTGTGGAAAATCTTCTCTGC
system: CSE1L
result.number: 0.43
--
sequence.content: TTTTAAATAATGAATGTGCTGT
system: CSE1L
result.number: 0.306
--
sequence.content: TTGACTTAAATTCATGACGGTA
system: CSE1L
result.number: -0.629
--
sequence.content: TCATCTTCAACAATTCTCCAGT
system: CSE1L
result.number: -0.0113
--
sequence.content: TTAGCTTTGCAAGTTATTCTTA
system: CSE1L
result.number: 0.362
--
sequence.content: TAAGATTTCAGTAAACACCAAA
system: CSE1L
result.number: -0.574
--
sequence.content: TAATATATTTGATACCGTCAGC
system: CSE1L
result.number: -0.712
--
sequence.content: TTGACCTACAGGATCATGCTCT
system: CSE1L
result.number: 0.379
--
sequence.content: TAGCAGAATCTCAACAAACGGT
system: CSE1L
result.number: -0.43
--
sequence.content: TTATGGATAAACATATTGCTTC
system: CSE1L
result.number: -0.779
--
sequence.content: TTGTGTAATTCCATGCTTCTGT
system: CSE1L
result.number: -0.12
--
sequence.content: TATATTGGTCAACTGATTCAGG
system: CSE1L
result.number: -0.381
--
sequence.content: TAAGTATGAACAACAATACTTT
system: CSE1L
result.number: -0.402
